# testTarget: human GPBAR1 receptor (Homo sapiens)
# Construct: expressed in transfected cells
# assayMethodText: functional cAMP assay in CHO-dhfr(minus) cells expressing human GPBAR1 receptors
# Type: cell-based
# details: human EC50, functional cAMP assay, 30 min at 30° C.
measuredProperty: EC50 (nM)
// units = nM; emit number, no label

>>> df
                                   molecule  unittag  recordednumber
0  Cc1ccc(C(C/C(=N\O)c2ccc(=O)n(C)c2)c2ccc(Br)cc2)c(F)c1 (centres unmarked)       nM             118
1  Cc1ccccc1C(Cc1ccc(Br)cc1)/C(=N\O)c1ccncc1 (centres unmarked)       nM             421

Incoming: Param readout= EC50; system= human GPBAR1 receptor (Homo sapiens); entry= Cc1ccccc1C(C/C(=N\O)c1ccc(=O)n(C)c1)c1ccc(C(=O)N[C@@H](C)CO)cc1 (some centres unmarked) ; returns value.
Outgoing: 320

Incoming: Param readout= EC50; system= human GPBAR1 receptor (Homo sapiens); entry= Cn1cc(/C(CC(c2ccc(S(C)(=O)=O)cc2)c2cc(F)cc(F)c2)=N/O)ccc1=O (centres unmarked) ; returns value.
Outgoing: 452

Incoming: Param readout= EC50; system= human GPBAR1 receptor (Homo sapiens); entry= Cn1cc(/C(CC(c2ccc(C(=O)N[C@H]3CC[C@H](O)CC3)c(F)c2)c2ccccc2Cl)=N/O)ccc1=O (some centres unmarked) ; returns value.
Outgoing: 700

----------
# testTarget: human GPBAR1 receptor (Homo sapiens)
# Construct: expressed in transfected cells
# assayMethodText: functional cAMP assay in CHO-dhfr(minus) cells expressing human GPBAR1 receptors
# Assay type: cell-based
# details: human EC50, functional cAMP assay, 30 min at 30° C.
Catalogue of compounds with associated pEC50
The meaning of pEC50 here: minus log10 of the concentration in molar units.

>>> print(df.to_string())
                                   compound  recordednumber
0  Cn1cc(/C(CC(c2ccc(C(=O)NCCO)cc2)c2ccc(Cl)cc2F)=N/O)ccc1=O (stereo not drawn) [Example 311]            6.60
1  Cc1ccccc1[C@H](C/C(Cc1ccncc1)=N/O)c1ccc(Br)cc1 [Example 262]            6.56

Proceeding to the next compound to report its pEC50.
Incoming: Consider the compound shown here: Cc1cc(/C(CC(c2ccc(Br)cc2)c2ccc(Cl)cc2F)=N/O)ccn1 (stereo not drawn) [Example 147] What is its recorded pEC50?
Outgoing: 6.33

----------
# testTarget: human GPBAR1 receptor (Homo sapiens, UniProt Q8TDU6)
# Construct: expressed in transfected cells
# Sequence (Q8TDU6 whole entry): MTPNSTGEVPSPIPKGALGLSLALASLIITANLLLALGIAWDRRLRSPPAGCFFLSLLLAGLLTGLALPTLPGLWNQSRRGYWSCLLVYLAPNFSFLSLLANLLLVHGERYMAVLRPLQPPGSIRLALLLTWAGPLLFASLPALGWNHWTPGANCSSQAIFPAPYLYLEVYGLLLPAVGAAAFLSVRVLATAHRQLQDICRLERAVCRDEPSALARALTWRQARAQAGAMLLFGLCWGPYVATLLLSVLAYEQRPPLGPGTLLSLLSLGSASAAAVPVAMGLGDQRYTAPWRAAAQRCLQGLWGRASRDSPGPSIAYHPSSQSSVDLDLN
# assayMethodText: functional cAMP assay in CHO-dhfr(minus) cells expressing human GPBAR1 receptors
# Type: cell-based
# details: human EC50, functional cAMP assay, 30 min at 30° C.
Strictly below 100 nM in EC50: satisfied. Otherwise: not satisfied.

Study these solved cases before continuing.
>>> print(df.to_string())
                                   compound                                testtarget          group
0  Cc1cc(/C(CC(c2ccc(C(=O)NC(C)(C)CO)cc2)c2ccc(F)cc2F)=N/O)ccn1 (centres unmarked)  human GPBAR1 receptor (Homo sapiens, UniProt Q8TDU6)      satisfied
1  Cc1ccccc1C(C/C(=N/O)c1ccncc1)c1ccc(-c2cncnc2)cc1 (single isomer, unassigned; (+)) [Example 38]  human GPBAR1 receptor (Homo sapiens, UniProt Q8TDU6)  not satisfied
2  Cc1cc(/C(C[C@H](c2ccc(-c3ccc(C(=O)O)c(Cl)c3)cc2)c2ccc(Cl)cc2F)=N/O)ccn1  human GPBAR1 receptor (Homo sapiens, UniProt Q8TDU6)      satisfied
3  Cc1cc(/C(C[C@H](c2ccc(-c3ncco3)cc2)c2ccccc2C)=N/O)ccn1  human GPBAR1 receptor (Homo sapiens, UniProt Q8TDU6)      satisfied

Incoming: # strict comparison: is reported EC50 < 100 nM? input = Cn1cc(/C(CC(c2ccc(Br)cc2)C2CCCCC2)=N/O)ccc1=O (centres unmarked)
Outgoing: satisfied

Incoming: # strict comparison: is reported EC50 < 100 nM? input = Cc1cc(/C(CC(c2ccc(C(=O)NCCN3CCS(=O)(=O)CC3)cc2)c2ccc(F)cc2F)=N/O)ccn1 (centres unmarked)
Outgoing: satisfied

----------
# testTarget: human GPBAR1 receptor (Homo sapiens, UniProt Q8TDU6)
# Construct: expressed in transfected cells
# assayMethodText: functional cAMP assay in CHO-dhfr(minus) cells expressing human GPBAR1 receptors
# Format: cell-based
# details: human EC50, functional cAMP assay, 30 min at 30° C.
measuredProperty: log10(EC50) (log10 of the value in nM)
Quick note: numbers are log10 of EC50, with nM as the unit.

>>> df
                                   molecule  recordednumber
0  Cc1ccccc1C(CC(=NO)c1ccncc1)c1ccc(-c2cncnc2)cc1 (racemic)            1.15

Proceeding to the next molecule to report its log10(EC50).
Incoming: Consider the molecule shown here: Cc1cc(/C(CC(c2ccccc2)c2ccccn2)=N/O)cc(C)n1 (stereo not drawn) What is its recorded log10(EC50)?
Outgoing: 2.53

----------
# testTarget: human GPBAR1 receptor (Homo sapiens)
# Construct: expressed in transfected cells
# assayMethodText: functional cAMP assay in CHO-dhfr(minus) cells expressing human GPBAR1 receptors
# Type: cell-based
# details: human EC50, functional cAMP assay, 30 min at 30° C.
pEC50: −log10 of the molar value.
Short version: pEC50 at least 7 is Criterion met, less is Criterion not met.

                                   compound              group
0  Cc1cc(/C(CC(c2ccc(C(=O)O)cc2)c2ccc(F)cc2F)=N/O)ccn1 (centres unmarked)  Criterion not met
1  Cc1ccccc1C(C/C(=N/O)c1ccncc1)c1ccc(-c2cncnc2)cc1 (single isomer, unassigned; (-)) [Example 37]  Criterion not met
2  Cc1ccccc1[C@H](C/C(Cc1ccncc1)=N\O)c1ccc(Br)cc1      Criterion met
3  Cc1cc(/C(C[C@H](c2ccc(C(=O)NC[C@H](C)O)cc2)c2ccccc2C)=N/O)ccn1      Criterion met
4  Cc1ccccc1C(C/C(=N\O)c1ccncc1)c1ccc(-c2cncnc2)cc1 (single isomer, unassigned; (-)) [Example 36]      Criterion met
5  Cn1cc(/C(CC(c2ccc(-c3ccc(C(=O)O)cc3)cc2)c2ccc(Cl)cc2F)=N/O)ccc1=O (single isomer, unassigned; (+)) [Example 241]  Criterion not met

Incoming: Please indicate if the recorded pEC50 for Cc1cc(Cl)ccc1C(C/C(=N\O)c1ccc(=O)n(C)c1)c1ccc(O)c(F)c1 (centres unmarked) meets or exceeds 7.
Outgoing: Criterion not met

Incoming: Please indicate if the recorded pEC50 for Cn1cc(/C(CC(c2ccc(Br)cc2)c2ccc(F)cc2F)=N/O)ccc1=O (centres unmarked) meets or exceeds 7.
Outgoing: Criterion met

Incoming: Please indicate if the recorded pEC50 for Cc1cc(C(CC(c2ccc(-c3ccc(C(=O)O)cc3F)cc2)c2ccccc2C)=NO)ccn1 (racemic) meets or exceeds 7.
Outgoing: Criterion met

Incoming: Please indicate if the recorded pEC50 for Cc1cc(C(CC(c2cccc(-c3ccc(S(C)(=O)=O)cc3)c2)c2ccccc2C)=NO)ccn1 (racemic) meets or exceeds 7.
Outgoing: Criterion not met

----------
# testTarget: human GPBAR1 receptor (Homo sapiens)
# Construct: expressed in transfected cells
# assayMethodText: functional cAMP assay in CHO-dhfr(minus) cells expressing human GPBAR1 receptors
# Format: cell-based
# details: human EC50, functional cAMP assay, 30 min at 30° C.
Catalogue of compounds with associated pEC50
The meaning of pEC50 here: minus log10 of the concentration in molar units.

// known answers, use as guide
                                   compound  recordednumber
0  Cc1cc(Cl)ccc1[C@H](C/C(=N\O)c1ccc(=O)n(C)c1)c1ccc(-c2ccc(C(=O)O)cc2)cc1 (single isomer, unassigned) [Example 393]            7.02
1  Cc1cc(/C(C[C@H](c2ccc(C3CN(S(C)(=O)=O)C3)cc2)c2ccccc2C)=N/O)ccn1 [Example 484]            8.00

Incoming: Consider the compound shown here: Cc1cc(/C(CC(c2ccc(N3CCN(S(C)(=O)=O)CC3)cc2)c2ccccc2C(F)(F)F)=N/O)ccn1 (stereo not shown) [Example 137] What is its recorded pEC50?
Outgoing: 7.42

Incoming: Consider the compound shown here: Cc1cc(/C(CC(c2ccc(Br)cc2)c2ncccc2C)=N/O)ccn1 (stereo not shown) [Example 116] What is its recorded pEC50?
Outgoing: 8.30

Incoming: Consider the compound shown here: Cn1cc(/C(CC(c2ccc(Br)cc2)c2ccc(Cl)cc2F)=N/O)ccc1=O (single isomer, unassigned; (+)) [Example 239] What is its recorded pEC50?
Outgoing: 7.62

Incoming: Consider the compound shown here: Cc1cc(C(CC(c2cccc(C#CCO)c2)c2ccccc2C)=NO)ccn1 (racemic) [Example 106] What is its recorded pEC50?
Outgoing: 6.59

Incoming: Consider the compound shown here: Cc1ccccc1C(C/C(=N\O)c1cc(F)ccc1F)c1ccc(Br)cc1 (stereo not shown) [Example 52] What is its recorded pEC50?
Outgoing: 6.12
